Source of measurements: ChEMBL document CHEMBL3758157

Assay: Stability in rat plasma assessed as compound remaining at 1 uM after 8 hrs by LC-MS/MS analysis
Type: ADME, cell-free
Conditions: read-out: Stability
PROPERTY: remaining at 8 h, 1 µM (%)

Cc1cc(-c2ccc(CC(=O)Nc3ccc4c(c3)C(=O)c3ccccc3-4)cc2)ccn1    100
Cc1cc(-c2ccc(CC(=O)Nc3ccc4c(c3)[nH]c3ccccc34)cc2)ccn1    100

---

Experiment: Thermodynamic solubility of the compound in FaSSIF at 4 mg/ml at pH 6.5 after overnight incubation by LC-MS/MS analysis
Assay type: physicochemical
Conditions: read-out: Therm_solubility
PROPERTY: solubility thermodynamic (µg/mL)
Provide the reading as a plain figure in µg/mL.

In: Given the molecule Cc1cc(-c2ccc(CC(=O)Nc3ccc4c(c3)[nH]c3ccccc34)cc2)ccn1 , what is its reported solubility thermodynamic?
Out: 2

---

Experiment: Intrinsic clearance in mouse liver microsomes at 1 uM preincubated for 10 mins followed by NADPH addition measured for 30 to 60 mins by LC-MS/MS analysis
Type: ADME
Details: read-out: CLH
PROPERTY: CLint scaled at 1 µM (mL/min/kg)

(A) Cc1cc(-c2ccc(CC(=O)Nc3ccc4c(c3)C(=O)c3ccccc3-4)cc2)ccn1
(B) Cc1cc(-c2ccc(CC(=O)Nc3ccc4c(c3)[nH]c3ccccc34)cc2)ccn1
In: Returns the identifier with the smallest measured CLint scaled at 1 µM among A and B . Refer to your chosen entry by its label in the reply.
Out: B

---

Test: Cmax in Sprague-Dawley rat plasma at 2 mg/kg, iv by LC-MS/MS analysis
Type: ADME, organism-based
Design: dose 2 mg/kg, route intravenous
PROPERTY: Cmax (µg/mL)
Provide the reading as a plain figure in µg/mL.

In: Given the compound Cc1cc(-c2ccc(CC(=O)Nc3ccc4c(c3)[nH]c3ccccc34)cc2)ccn1 , what is its reported Cmax?
Out: 1.95

---

Assay: Chemical stability in simulated gastric fluid assessed as compound remaining at 200 uM at 40 degC after 24 hrs by HPLC technique
Format: physicochemical
Details: read-out: Stability
PROPERTY: remaining at 24 h, 200 µM (%)

Cc1cc(-c2ccc(CC(=O)Nc3ccc4c(c3)C(=O)c3ccccc3-4)cc2)ccn1    99
Cc1cc(-c2ccc(CC(=O)Nc3ccc4c(c3)[nH]c3ccccc34)cc2)ccn1    100

---

Test: Intrinsic clearance in human liver microsomes at 1 uM preincubated for 10 mins followed by NADPH addition measured for 30 to 60 mins by LC-MS/MS analysis
Type: ADME
Conditions: read-out: CLH
PROPERTY: CLint scaled at 1 µM (mL/min/kg)

(I) Cc1cc(-c2ccc(CC(=O)Nc3ccc4c(c3)[nH]c3ccccc34)cc2)ccn1
(II) Cc1cc(-c2ccc(CC(=O)Nc3ccc4c(c3)C(=O)c3ccccc3-4)cc2)ccn1
In: Returns the identifier with the smallest measured CLint scaled at 1 µM among I and II . Refer to your chosen entry by its label in the reply.
Out: I

---

Experiment: AUC (0 to 24 hrs) in Sprague-Dawley rat plasma at 10 mg/kg, po by LC-MS/MS analysis
Type: ADME, organism-based
Parameters: dose 10 mg/kg, time < 24 hr, route oral
PROPERTY: AUC(0-t) at 24 h (ng·h/mL)
Provide the reading as a plain figure in ng·h/mL.

In: Given the compound Cc1cc(-c2ccc(CC(=O)Nc3ccc4c(c3)[nH]c3ccccc34)cc2)ccn1 , what is its reported AUC(0-t) at 24 h?
Out: 11300

---

Test: Half life in Sprague-Dawley rat at 10 mg/kg, po by LC-MS/MS analysis
Format: ADME, organism-based
Settings: in vivo
PROPERTY: half-life (h)
Provide the reading as a plain figure in h.

In: Given the molecule Cc1cc(-c2ccc(CC(=O)Nc3ccc4c(c3)[nH]c3ccccc34)cc2)ccn1 , what is its reported half-life?
Out: 3.1

---

Experiment: Cytotoxicity against mouse NIH/3T3 cells by GRE-Luciferase reporter gene assay
Assay type: cell-based
Conditions: nih3t3
PROPERTY: Activity

Past entries and their recorded results:
O=C(Cc1ccc2c(c1)C(=O)c1ccccc1-2)Nc1ccc(-c2cnccn2)cn1    Non-toxic
O=C(Cc1ccc2c(c1)Cc1ccccc1-2)Nc1ccc(-c2cccnc2)cc1    Non-toxic
Cc1cc(-c2ccc(CC(=O)Nc3ccc4c(c3)C(=O)c3ccccc3-4)cc2)ccn1    Non-toxic
Cc1cc(-c2ccc(CC(=O)Nc3ccc4c(c3)[nH]c3ccccc34)cc2)ccn1    Non-toxic
O=C(Cc1ccc2c(c1)oc1ccccc12)Nc1ccc(-c2cnccn2)cn1    Non-toxic
Cc1cc(-c2ncc(CC(=O)Nc3ccc4c5ccccc5n(C)c4c3)cc2C)ccn1    Non-toxic
Cc1cc(-c2ncc(CC(=O)Nc3ccc4c(c3)C(=O)c3ccccc3-4)cc2C)ccn1    Non-toxic
Cc1cc(-c2ncc(CC(=O)Nc3ccc4c(c3)C(F)(F)c3ccccc3-4)cc2C)ccn1    Non-toxic

In: Given the molecule Cc1cc(-c2ccc(CC(=O)Nc3ccc4c(c3)C(F)(F)c3ccccc3-4)cc2)ccn1 , what is its reported Activity?
Out: Non-toxic

---

Test: Oral bioavailability in Sprague-Dawley rat at 10 mg/kg by LC-MS/MS analysis
Type: ADME, organism-based
Settings: in vivo
PROPERTY: bioavailability (%)
Provide the reading as a plain figure in %.

In: Given the molecule Cc1cc(-c2ccc(CC(=O)Nc3ccc4c(c3)[nH]c3ccccc34)cc2)ccn1 , what is its reported bioavailability?
Out: 30

---

Assay: Tmax in Sprague-Dawley rat plasma at 10 mg/kg, po by LC-MS/MS analysis
Format: ADME, organism-based
PROPERTY: Tmax (h)
Provide the reading as a plain figure in h.

In: Given the compound Cc1cc(-c2ccc(CC(=O)Nc3ccc4c(c3)[nH]c3ccccc34)cc2)ccn1 , what is its reported Tmax?
Out: 1

---

Test: Cmax in Sprague-Dawley rat plasma at 10 mg/kg, po by LC-MS/MS analysis
Assay type: ADME, organism-based
Parameters: dose 10 mg/kg, route oral
PROPERTY: Cmax (ng/mL)
Provide the reading as a plain figure in ng/mL.

In: Given the compound Cc1cc(-c2ccc(CC(=O)Nc3ccc4c(c3)[nH]c3ccccc34)cc2)ccn1 , what is its reported Cmax?
Out: 2880
